Test system: up to 32 different microorganisms
Experiment: in vitro antibacterial activity (MIC), agar dilution on Brain Heart Infusion (BHI) agar with Steers replicator
Assay type: cell-based
Conditions: Streptococcus pyogenes PIU 2548 (code NN); unit assumed
test_readout: MIC (µg/mL)
Field: numeric (µg/mL). Do not append units.

{"molecule": "CCCO[C@@]1(C)C[C@@H](C)C(=O)[C@H](C)[C@@H](O)[C@](C)(O)[C@@H](CC)OC(=O)[C@H](C)C(=O)[C@H](C)[C@H]1O[C@@H]1O[C@H](C)C[C@H](N(C)C)[C@H]1O", "target_or_test_system": "up to 32 different microorganisms", "test_readout": "MIC", "observed_result": 100}
{"molecule": "CC[C@H]1OC(=O)[C@H](C)C(=O)[C@H](C)[C@@H](O[C@@H]2O[C@H](C)C[C@H](N(C)C)[C@H]2O)[C@@](C)(OCC=Cc2ccc(F)cc2)C[C@@H](C)C(=O)[C@H](C)[C@@H](O)[C@]1(C)O", "target_or_test_system": "up to 32 different microorganisms", "test_readout": "MIC", "observed_result": 1.56}
{"molecule": "C=CCOC1(C)CC(C)C(=O)C(C)C(O)C(C)(O)C(CC)OC(=O)C(C)C(=O)C(C)C1OC1OC(C)CC(N(C)C)C1O (stereo not shown)", "target_or_test_system": "up to 32 different microorganisms", "test_readout": "MIC", "observed_result": 12.5}

Now consider the entry below.
// query Note MIC for the molecule shown: CCC1OC(=O)C(C)C(=O)C(C)C(OC2OC(C)CC(N(C)C)C2O)C(C)(OCC=Cc2cncc3ccccc23)CC(C)C(=O)C(C)C2NC(=O)OC12C (stereo not shown)
// result 0.1

The reported numbers originate from patent USRE39591E1.
